Method Description: chemical genetic growth profiling, strain panel (AID 1159580);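 also: tested at 20 µM; growth read once vehicle control cultures reached saturation at 30 °C; 1 = growth at the plate median or of vehicle wells; lower values mean less growth of the strain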
Details: S. cerevisiae deletion strains, growth OD, locus YGL078C, strain dbp3, hits give low values
Among all 5,500 compounds or so, about 2,000 (36%) were called active. Another 18% or so got no clear call; they are omitted. Some of the results follow.
Observation Type: normalized growth

Entry CO[C@@]1(NC(=O)C(C(=O)O)c2ccc(O)cc2)C(=O)N2C(C(=O)O)=C(CSc3nnnn3C)CO[C@@H]21 (stereo partly drawn) : reported normalized growth = ?
0.998 (inactive)

More entries:
Can you look up the measured normalized growth of CCC(c1ccc(O)cc1)C(CC)c1ccc(O)cc1 (stereo not drawn) for me?
0.976 (inactive)

Using the record for NC(=O)NCCCC(N)C(=O)O (stereo not drawn) , report its normalized growth.
1 (inactive)
